- Test system: FB
- Test Method Notes: Euclidean distance of Cell Painting phenotypic profile (signed KS, 77 features) to DMSO centroid (dimensionless distance); 5 or 10 uM (library dependent); higher = stronger phenotypic change vs DMSO (phenoactivity)
- Assay Setup: 48 h
Assign Euclidean distance to each entry below.
// print number alone

[ask] What value of Euclidean distance has been recorded for this entry: NC(=O)N1CCC(CC(=O)N2CCC([C@H]3c4ncc(Br)cc4CCc4cc(Cl)cc(Br)c43)CC2)CC1 [Lonafarnib]
[reply] 2.36

[ask] What value of Euclidean distance has been recorded for this entry: NC(=O)c1cccnc1 [Nicotinamide (Vitamin B3)]
[reply] 0.938

[ask] What value of Euclidean distance has been recorded for this entry: COC(=O)C1=C(C)NC(C)=C(C(=O)OC)C1c1ccccc1[N+](=O)[O-] [Nifedipine]
[reply] 1.11

[ask] What value of Euclidean distance has been recorded for this entry: NC[C@H]1O[C@H](O[C@H]2[C@H](O)[C@@H](O[C@H]3O[C@H](CO)[C@@H](O)[C@H](N)[C@H]3O)[C@H](N)C[C@@H]2N)[C@H](N)C[C@@H]1O [Tobramycin]
[reply] 0.987
